Sourced from patent US20230141988A1

assay: Plasma and CSF pharmacokinetic study, single sublingual, oral or subcutaneous dose, male Beagle dogs; assay type: in vivo; conditions: male, beagle, dog, in vivo, sc, 1 mg/kg, single SC 1 mg/kg; 119 s; mean; read-out: CSF concentration
RECORDED_METRIC: concentration at 0.033 h (ng/mL)
One number for each entry, in ng/mL.

Consider the compound CN1CCc2cccc3c2[C@@H]1Cc1ccc(O)c(O)c1-3 . State its measured concentration at 0.033 h.
12.2

###

assay: in vivo; conditions: male, C57BL/6J, mouse, plasma concentration, Mean
RECORDED_METRIC: concentration at 2 h (ng/mL)
One number for each entry, in ng/mL.

Consider the compound CN1CCc2cccc3c2[C@@H]1Cc1ccc(O)c(O)c1-3 . State its measured concentration at 2 h.
18.7

###

assay: in vivo; conditions: male, beagle, dog, in vivo, po, 10 mg/kg, plasma concentration
RECORDED_METRIC: concentration at […] (ng/mL)
One number for each entry, in ng/mL.

Consider the compound CN1CCc2cccc3c2[C@@H]1Cc1ccc(O)c(O)c1-3 . State its measured concentration at […].
255

###

assay: in vivo; settings: male, SD, rat, iv, 0.88 mg/kg, plasma concentration, Mean
RECORDED_METRIC: concentration at 2 h (ng/mL)
Answers are plain numbers, in ng/mL.

Consider the compound CN1CCc2cccc3c2[C@@H]1Cc1ccc(O)c(O)c1-3 . State its measured concentration at 2 h.
3.67

###

assay: in vivo; details: male, SD, rat, iv, 0.88 mg/kg, plasma concentration, Mean
RECORDED_METRIC: concentration at 2 min

Consider the compound CN1CCc2cccc3c2[C@@H]1Cc1ccc(O)c(O)c1-3 . State its measured concentration at 2 min.
339 ng/mL

###

assay: Plasma and CSF pharmacokinetic study, single sublingual, oral or subcutaneous dose, male Beagle dogs; type: in vivo; conditions: male, beagle, dog, in vivo, po, 10 mg/kg, plasma concentration
RECORDED_METRIC: concentration at […] (ng/mL)
Answers are plain numbers, in ng/mL.

Consider the compound CN1CCc2cccc3c2[C@@H]1Cc1ccc(O)c(O)c1-3 . State its measured concentration at […].
9.2

###

assay: in vivo; conditions: male, C57BL/6J, mouse, po, 25 mg/kg, Plasma concentration, Mean
RECORDED_METRIC: concentration at 0.5 h (ng/mL)
Answers are plain numbers, in ng/mL.

Consider the compound CN1CCc2cccc3c2[C@@H]1Cc1ccc(O)c(O)c1-3 . State its measured concentration at 0.5 h.
528

###

test: in vivo; settings: male, C57BL/6J, mouse, po, 25 mg/kg, CSF concentration, Mean
RECORDED_METRIC: concentration at 2 h
A bare number is not enough; add the unit after it.

Consider the compound CN1CCc2cccc3c2[C@@H]1Cc1ccc(O)c(O)c1-3 . State its measured concentration at 2 h.
3.56 ng/mL

###

assay: in vivo; conditions: male, C57BL/6J, mouse, po, 25 mg/kg, Plasma concentration
RECORDED_METRIC: concentration at 12 h (ng/mL)
Give bare numbers, in ng/mL.

Consider the compound CN1CCc2cccc3c2[C@@H]1Cc1ccc(O)c(O)c1-3 . State its measured concentration at 12 h.
0.198

###

experiment: in vivo; details: male, SD, rat
RECORDED_METRIC: concentration at 1 h (ng/mL)
Answers are plain numbers, in ng/mL.

Consider the molecule CN1CCc2cccc3c2[C@@H]1Cc1ccc(O)c(O)c1-3 . State its measured concentration at 1 h.
8.96
